Where do these numbers come from? They come from patent US8163778B2.

# TESTED SYSTEM: UniProt P09467
# Sequence (P09467 2-338 limits assumed): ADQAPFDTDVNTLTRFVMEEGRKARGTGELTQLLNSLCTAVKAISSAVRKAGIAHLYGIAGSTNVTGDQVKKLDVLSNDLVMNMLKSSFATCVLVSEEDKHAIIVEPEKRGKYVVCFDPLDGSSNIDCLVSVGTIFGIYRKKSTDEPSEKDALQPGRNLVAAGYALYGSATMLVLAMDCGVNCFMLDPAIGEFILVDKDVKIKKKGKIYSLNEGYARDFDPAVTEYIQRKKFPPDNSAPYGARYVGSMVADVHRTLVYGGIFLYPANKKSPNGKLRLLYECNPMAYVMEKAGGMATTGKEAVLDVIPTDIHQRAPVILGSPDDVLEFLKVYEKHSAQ
# EXPERIMENT SUMMARY: FBPase assay (malachite green phosphate release)
# EXPERIMENTAL PARAMETERS: recombinant human liver FBPase, 50 μM fructose-1,6-bisphosphate
Catalogue of log10 IC50 readings, one per entry.
Answers are given as log10 of IC50 in nM.

> print(dat)
                                   compound  endpoint.result
1  COCCc1sc(S(=O)(=O)NC(=O)Nc2cc(OC)cc(C(=O)OC)n2)cc1C [Compound 118]             3.36
2  COCCc1sc(S(=O)(=O)NC(=O)Nc2cc(SC)cc(N)n2)cc1C [Compound 32]             2.64
3  COCCc1sc(S(=O)(=O)NC(=O)Nc2cc(OC)cc(C(N)=O)n2)cc1C [Compound 119]             3.68
4  CNC(=O)Nc1cc(OC)cc(NC(=O)NS(=O)(=O)c2cc3cc(C)ccc3s2)n1 [Compound 7]             2.00
5  COCCc1sc(S(=O)(=O)NC(=O)Nc2cc(-c3noc(C)n3)cc(N)n2)cc1C [Compound 110]             4.21

Prompt line: Give its log10 IC50 value. Item: Nc1cc(Br)cc(NC(=O)NS(=O)(=O)c2ccc3c(c2)OCCO3)n1 [Compound 37]
Response line: 2.76

Prompt line: Give its log10 IC50 value. Item: CNC(=O)Nc1cc(SC)cc(NC(=O)NS(=O)(=O)c2coc3ccccc23)n1 [Compound 89]
Response line: 2.70

Prompt line: Give its log10 IC50 value. Item: CCOC(=O)c1cc(NC(=O)NC)nc(NC(=O)NS(=O)(=O)c2cc(C)c(CCOC)s2)c1 [Compound 99]
Response line: 2.96
